Biological target: human PD1 expressed on a cell surface (human, UniProt Q15116 25-288)
Sequence (Q15116 25-288): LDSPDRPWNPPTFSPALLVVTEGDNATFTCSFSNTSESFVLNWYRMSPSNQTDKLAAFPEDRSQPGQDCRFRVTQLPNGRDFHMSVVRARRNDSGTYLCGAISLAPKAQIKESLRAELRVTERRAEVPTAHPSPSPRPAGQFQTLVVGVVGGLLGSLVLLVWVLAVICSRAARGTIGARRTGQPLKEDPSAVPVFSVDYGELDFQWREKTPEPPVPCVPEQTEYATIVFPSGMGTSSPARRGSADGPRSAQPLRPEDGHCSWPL
Assay: cell-based or functional assay
measureName: EC50 for CD8+ T cell proliferation (pM), mixed lymphocyte reaction
Answers are plain numbers, in pM.

- binder: "anti-hPD1 antibody #7 (antibody, human IgG4, V domains shown, also called Anti-hPD1 #7; Anti-PD1 #7) VH: QVQLVQSGAEVKKPGASVKVSCKASGYTFTNYWIHWVRQAPGQGLEWMGEIDPYDSYTNYNQKFKGRVTMTIDKSTNTVYMELSSLRSEDTAVYYCARPGLTYGGMDFWGQGTLVTVSS VL: DIVMTQSPDSLAVSLGERATINCRSSQSLFISGNQKNYLAWYQQKPGQPPKLLIYGASTRESGVPDRFSGSGSGTDFTLTISSLQAEDVAVYYCQNNHYYPYTFGGGTKVEIK"
  units: "pM"
  measured: 1520
- binder: "anti-hPD1 antibody #1 (antibody, V domains shown, also called Anti-hPD1 #1; Anti-PD1 #1) VH: QVQLVQSGAEVKKPGASVKVSCKASGYTFTNYWIHWVRQAPGQGLEWMGEIDPYDSYTNYNQKFKGRVTMTVDKSTSTVYMELSSLRSEDTAVYYCARPGFTYGGMDFWGQGTLVTVSS VL: DIQMTQSPSSLSASVGDRVTITCKSSQSLFNSGNQKNYLAWYQQKPGKVPKLLIYGASTRDSGVPYRFSGSGSGTDFTLTISSLQPEDVATYYCQNDHYYPYTFGGGTKVEIKR"
  units: "pM"
  measured: 323

For every listed record, write down its EC50 for CD8+ T cell proliferation (pM), mixed lymphocyte reaction.
1. anti-hPD1 antibody #10 (antibody, human IgG4, V domains shown, also called Anti-hPD1 #10; Anti-PD1 #10) VH: QVQLVQSGAEVKKPGASVKVSCKASGYTFTSYWMHWVRQAPGQGLEWMGEIDPFDSYTNYNQKFKGRVTMTIDKSTNTVYMELSSLGSEDTAVYYCARPGYTYGGMDFWGQGTLVTVSS VL: DIVMTQSPDSLAVSLGERATINCRSSQSLFISGNQKNYLAWYQQKPGQPPKLLIYGASTRDSGVPDRFSGSGSGTDFTLTISSLQAEDVAVYYCQNNHYYPYTFGGGTKVEIK
2. anti-hPD1 antibody #4 (antibody, human IgG4, V domains shown, also called Anti-hPD1 #4; Anti-PD1 #4) VH: QVQLVQSGAEVKKPGASVKVSCKASGYTFTNYWMHWVRQAPGQGLEWMGEIDPFDSYTNYNQKFKGRVTMTRDTSTSTVYMELSSLTSEDTAVYYCARPGYTYGGMDFWGQGTLVTVSS VL: DIQMTQSPSSLSASVGDRVTITCKSSQSLLNSGNQKNYLAWYQQKPGKPPKLLIYGASTRDSGVPSRFSGSGSGTDFTLTISSLQPEDVATYYCQNDHYYPYTFGGGTKVEIK
3. anti-hPD1 antibody #3 (antibody, human IgG4, V domains shown, also called Anti-hPD1 #3; Anti-PD1 #3) VH: QVQLVQSGAEVKKPGASVKVSCKASSYTFTNYWMHWVRQAPGQGLEWMGEIDPYDSYTNYNQKFKGRVTMTIDTSTSTVYMELSSLTSEDTAVYYCARPGFTYGGMDFWGQGTLVTVSS VL: DIQMTQSPSSLSASVGDRVTITCKSSQSLFNSGNQKNYLAWYQQKPGKVPKLLIYGASTRESGVPARFSGSGSGTDFTLTISSLQAEDVATYYCQNDHYYPYTFGGGTKVEIK

Data returned:
1. 839
2. 534
3. 3670
